# Tested on: KM12
# EXPERIMENT SUMMARY: NCI tumour cell line growth inhibition, 48 h
The source made the active and inactive calls. No stated cut-off is given here; in the data, active = GI50 up to about 1.1 µM and inactive = higher.
Outcomes you can answer with include only these: True for active, False for inactive

MOLECULE: O=c1[nH]/c(=C/c2ccc(OCc3ccccc3)cn2)c(=O)[nH]/c1=C/c1cccnc1
ASSIGNED CATEGORY: True

Check the results log: what was the call for COc1cc(CO)cc2c1[nH]c1ccccc12 ?
False

What was the test verdict on OC1(c2ccc(Cl)cc2)c2ccc3ccccc3c2C2=N[C@H]3CCCC[C@@H]3N21 (stereo partly specified) ?
False

====

# System: LXFL 529
# EXPERIMENT SUMMARY: NCI tumour cell line growth inhibition, 48 h
Active and inactive are the calls of the source. No stated cut-off is given here; in the data, active = GI50 up to about 1.1 µM and inactive = higher.
MEASURED PROPERTY: GI50

Before answering, review these 5 worked examples.
COMPOUND: O=C(O)C1C2CC3CC2CC31 (stereo unspecified)
GI50: > 100 µM (inactive)
--
COMPOUND: ClC/C=C/COC1CCCCO1 (stereo unspecified)
GI50: > 100 µM (inactive)
--
COMPOUND: COc1ccc2c(c1)OC(c1ccccc1O)CC2=O (stereo unspecified)
GI50: 21.7 µM (inactive)
--
COMPOUND: CCC1(C(=O)OC)CCc2c(OC)ccc(OC)c2C1=O (stereo unspecified)
GI50: > 100 µM (inactive)
--
COMPOUND: CC1=NN(C(=O)Cc2ccccc2)C(=O)/C1=C\c1ccc([N+](=O)[O-])cc1
GI50: > 100 µM (inactive)

Data point: Clc1ccccc1C1N2CCCCC2[C@@H]2c3[nH]c4ccccc4c3CCN12 (stereo partly specified) ; GI50 = 31 µM (inactive)
